- Tested on: SF-268
- method: NCI tumour cell line growth inhibition, 48 h
Active and inactive are the calls of the source. Cut-off read from the data, not from the text of the source: active = GI50 up to about 1.1 µM and inactive = higher. Non-standard residues stand in square brackets, D forms with d. Residues, ends and D or L forms follow the SMILES beside them. *: point of attachment. Bn2Val = CC(C)[C@@H](C(=O)*)N(Cc1ccccc1)Cc1ccccc1; NH(4-Cl-benzyl) = Clc1ccc(CN*)cc1; NMeV = CN[C@H](C(=O)O)C(C)C; dNMeA = CN[C@H](C)C(=O)O
reported_property: GI50

Field: example entries. Status: answers known.
molecule | system_name | GI50
C[C@@H](NC(=O)Nc1cccc(C(=O)Nc2cc(C(C)(C)C)ccc2C(=O)O)n1)c1ccccc1 | SF-268 | 46.8 µM (inactive)
CC(C)[C@H](NC(=O)[C@H](C(C)C)N(Cc1ccccc1)Cc1ccccc1)C(=O)N(C)[C@H](C(=O)N1CCC[C@H]1C(=O)N(C)[C@H](C)C(=O)NCc1ccc(Cl)cc1)C(C)C (Bn2Val-V[NMeV]P[dNMeA]-{NH(4-Cl-benzyl)}) | SF-268 | 2.98 µM (inactive)
CCOC(=O)c1c(-c2ccccc2)[nH]c2ccc(Cl)cc2c1=O | SF-268 | 50.1 µM (inactive)

State, in one line, measured GI50 of `[N-]=[N+]=Nc1c(Br)c(=O)[nH]c(=O)n1COCCO`
> 100 µM (inactive)

State, in one line, measured GI50 of `CC/C(=N/O)c1ccc(Br)s1`
> 100 µM (inactive)

State, in one line, measured GI50 of `Nc1ccc(-c2nc3cc(F)ccc3s2)cc1Br`
42 µM (inactive)

State, in one line, measured GI50 of `CC1=C(SCc2ccccc2)C(=O)c2ccccc2C1=O`
16.7 µM (inactive)

State, in one line, measured GI50 of `CCOC(=O)Oc1cc2c(ccn2C)c2c1c1ccccc1n2C(=O)OCC`
> 100 µM (inactive)

----------
Entries and their GI50
- Tested on: MOLT-4
- method: NCI tumour cell line growth inhibition, 48 h
Activity calls are given as the source filed them. Rule as the data show it: active = GI50 up to about 1.1 µM and inactive = higher.

Field: example entries. Status: answers known.
smiles_record | reported_value
Cc1nc(O)nc2nc3ccc(Cl)cc3c(NCCNCCO)c12 | 7.53 µM (inactive)
Cn1c(=O)n2c(=O)n(C)c(=O)n2c1=O | > 100 µM (inactive)
COc1ccc(Nc2nc3ccccc3nc2-c2cccs2)cc1OC | > 10 µM (inactive)
CCOc1ccccc1NC(=O)C(=O)CC(=O)c1c(C)[n+]([O-])c2ccccc2[n+]1[O-] | > 100 µM (inactive)
CCOC(=O)/C(=C\NC(=S)Nc1ccc(Cl)c(Cl)c1)C(=O)c1ccccc1 | 19 µM (inactive)

State, in one line, measured GI50 of `COc1ccc(/C=C2\CCS(=O)(=O)c3ccccc3C2=O)cc1`
18.1 µM (inactive)

----------
- Tested on: MDA-MB-435
- method: NCI tumour cell line growth inhibition, 48 h
Activity calls are given as the source filed them. Rule as the data show it: active = GI50 up to about 1.1 µM and inactive = higher.
reported_property: GI50

compound | reported_value
CCN(CC)c1ccc2cc(C(=O)Nc3ccccc3OC)c(=N)oc2c1 | 34.2 µM (inactive)
O=C(Nc1sccc1S(=O)(=O)c1ccc(Cl)cc1)c1ccc(Cl)cc1Cl | 14.5 µM (inactive)
Cc1[nH]c2c(c1C)S(=O)(=O)c1cc3ccccc3nc1N2 | 26.4 µM (inactive)
O=C(O)Cc1ccc(Oc2nc3ccccc3nc2-c2cccs2)cc1 | 92 µM (inactive)

State, in one line, measured GI50 of `CCOC(=O)Oc1cc2c(ccn2C)c2c1c1ccccc1n2C(=O)OCC`
> 100 µM (inactive)

State, in one line, measured GI50 of `Nc1sc2c(c1C(=O)c1ccc(Cl)c(Cl)c1)CCCC2`
30.8 µM (inactive)

State, in one line, measured GI50 of CC1C2(C)OC(=N)C(C#N)(C(c3ccccc3)O2)C1(C#N)C#N (stereo unspecified)
33.3 µM (inactive)

State, in one line, measured GI50 of `COC(=O)N1CC[C@@H]2CCC=C(c3cccc4c3OCO4)[C@@H]21`
> 100 µM (inactive)

State, in one line, measured GI50 of COc1cccc2c1OCC1Cc3ccccc3OC21 (stereo unspecified)
24.7 µM (inactive)

State, in one line, measured GI50 of `Cc1ccc([N+](=O)[O-])cc1S(=O)(=O)Nc1ccc(C(=O)/C=C/c2cccs2)cc1`
17.6 µM (inactive)

----------
- Tested on: M14
- method: NCI tumour cell line growth inhibition, 48 h
The source made the active and inactive calls. Cut-off read from the data, not from the text of the source: active = GI50 up to about 1.1 µM and inactive = higher.
Entries and their GI50

Field: example entries. Status: answers known.
compound | GI50
[N-]=[N+]=Nc1cc(=O)oc2ccccc12 | > 100 µM (inactive)
CCOC(=O)[C@@]12C[C@](/C=C/OC)(O[Si](C)(C)C)[C@@]13c1cc(OC)c(OC)cc1CCN3C(=O)C2O (stereo not given in full) | > 100 µM (inactive)
COC(=O)C1C(=O)N(CCc2c[nH]c3ccccc23)C[C@@H]2CCC(=O)C[C@H]12 (stereo not given in full) | > 100 µM (inactive)

State, in one line, measured GI50 of CCOC(=O)C12OC(OCC)(CC1(OCC)OCC)C1(CC1)C2=O (stereo not given)
> 100 µM (inactive)

State, in one line, measured GI50 of `Nc1ccc(Oc2ccc(C34CC5CC(C3)CC(c3ccc(Oc6ccc(N)c(O)c6)cc3)(C5)C4)cc2)cc1O`
1.63 µM (inactive)

State, in one line, measured GI50 of `CN(C)CCNc1ccc2ncn3c4ccccc4c(=O)c1c23`
3.11 µM (inactive)

State, in one line, measured GI50 of `Nc1nc(O)nc2sc3c(c12)CCCC3`
41.1 µM (inactive)

State, in one line, measured GI50 of `COc1ccc(/C=C2\CCS(=O)(=O)c3ccccc3C2=O)cc1`
34.4 µM (inactive)

State, in one line, measured GI50 of `CSC(SC)=C(C(=O)c1ccc(Cl)cc1)n1c(=O)sc2cc(Br)ccc21`
> 100 µM (inactive)

State, in one line, measured GI50 of `N#Cc1ccc(OCCSCCCCCCCCCCSCCOc2ccc(C#N)cc2)cc1`
> 100 µM (inactive)

----------
- Test system: NCI-H460
- method: NCI tumour cell line growth inhibition, 48 h
Calls of active or inactive are those of the source. No stated cut-off is given here; in the data, active = GI50 up to about 1.1 µM and inactive = higher.
Your response should consist of one outcome taken from active, inactive

compound | category_label
COc1cccc(/C=C/c2cc(OC)c(OC)c(OC)c2)c1 | inactive
C[C@H]1[C@H](C)N1CC(O)Cn1ccnc1[N+](=O)[O-] (stereo partly specified) | inactive
CC12CCC3=C(CSC4=C3CSc3ccccc34)C1=CCCC2=O (stereo unspecified) | inactive
O=S(=O)(/C=C/c1ccc(F)cc1)Cc1ccc(CS(=O)(=O)/C=C/c2ccc(F)cc2)cc1 | inactive

We next turn to a different compound, shown below.
Could you kindly confirm the outcome this assay logged for O=C(O)c1ccc(NC(=O)C2C(=O)C(=O)N(c3ccc(C(=O)O)cc3)C2=O)cc1 (stereo unspecified) ?
inactive

----------
- System: BT-549
- method: NCI tumour cell line growth inhibition, 48 h
Active and inactive are the calls of the source. Cut-off read from the data, not from the text of the source: active = GI50 up to about 1.1 µM and inactive = higher.
reported_property: GI50

Field: example entries. Status: answers known.
compound | system_name | GI50
CC1CCc2sc3nc(S)n(-c4ccccc4)c(=O)c3c2C1 (stereo not drawn) | BT-549 | > 100 µM (inactive)
CC1CCCC(CC(=O)O)(CC(=O)O)C1 (stereo not drawn) | BT-549 | > 100 µM (inactive)
COc1ccc2c(C(=O)c3cn(CCN4CCOCC4)c4ccccc34)cccc2c1 | BT-549 | > 95.5 µM (inactive)

State, in one line, measured GI50 of `O=C(c1ccco1)N(Cc1cccnc1)C(=S)N(Cc1cccnc1)C(=O)c1ccco1`
23.2 µM (inactive)

State, in one line, measured GI50 of `NCCP(=O)(O)O`
> 100 µM (inactive)

----------
- Test system: A549
- method: NCI tumour cell line growth inhibition, 48 h
Calls of active or inactive are those of the source. Rule as the data show it: active = GI50 up to about 1.1 µM and inactive = higher.
Your response should consist of one outcome taken from T for active, F for inactive

Some entries whose results are on file:
molecule | category_label
COc1ccc2[nH]c3c(C)cc([N+](=O)[O-])c(C)c3c2c1 | F
COc1ccc2[nH]c3c(c2c1)[C@H](c1ccccc1)C[C@@H]1C(=O)N(c2ccccc2)C(=O)[C@H]31 | F
O=C1/C(=C\c2cccc(Oc3ccccc3)c2)SC(c2ccccc2)N1c1ccc(Cl)cc1 (stereo unspecified) | F

Could you kindly confirm the outcome this assay logged for COc1cc2c(c(O)c1OC)C(=O)[C@@H]1CCC(=O)N1C2c1ccccc1 (stereo partly specified) ?
F

Could you kindly confirm the outcome this assay logged for `Cc1ccc(C(=O)Oc2ccc(/C=C3\CCC/C(=C\c4ccc(OC(=O)c5ccc(C)cc5)cc4)C3=O)cc2)cc1` ?
F

Could you kindly confirm the outcome this assay logged for `Cn1c(=O)nc2n(-c3cccc(F)c3)c3ccccc3nc-2c1=O` ?
F

Could you kindly confirm the outcome this assay logged for OCC(O)C(Cl)CCl (stereo unspecified) ?
F

Could you kindly confirm the outcome this assay logged for `c1ccc(C[P+]2(c3ccccc3)c3ccccc3-c3ccccc32)cc1` ?
F

Could you kindly confirm the outcome this assay logged for OC1CCC(COC(c2ccccc2)(c2ccccc2)c2ccccc2)O1 (stereo unspecified) ?
F

Could you kindly confirm the outcome this assay logged for `CCN1C(NN)=NS(=O)(=O)c2ccccc21` ?
F

Could you kindly confirm the outcome this assay logged for COc1ccc2c(c1)OCC1Cc3cc4c(cc3OC21)OCO4 (stereo unspecified) ?
F

Could you kindly confirm the outcome this assay logged for COc1ccccc1C1ON=C(c2ccc([N+](=O)[O-])cc2)N1C12CC3CC(CC(C3)C1)C2 (stereo unspecified) ?
F

Could you kindly confirm the outcome this assay logged for CC1Oc2cc3c(-c4c(O)cc(O)c5c(O)c6c(cc45)OC(C)C(C)C6=O)c(O)cc(O)c3c(O)c2C(=O)C1C (stereo unspecified) ?
T
